# Target Or Test System: human recombinant HDAC6 (Homo sapiens, UniProt Q9UBN7)
# Construct: purchased Calbiochem Inc. 382180
# Sequence (Q9UBN7 1-1215): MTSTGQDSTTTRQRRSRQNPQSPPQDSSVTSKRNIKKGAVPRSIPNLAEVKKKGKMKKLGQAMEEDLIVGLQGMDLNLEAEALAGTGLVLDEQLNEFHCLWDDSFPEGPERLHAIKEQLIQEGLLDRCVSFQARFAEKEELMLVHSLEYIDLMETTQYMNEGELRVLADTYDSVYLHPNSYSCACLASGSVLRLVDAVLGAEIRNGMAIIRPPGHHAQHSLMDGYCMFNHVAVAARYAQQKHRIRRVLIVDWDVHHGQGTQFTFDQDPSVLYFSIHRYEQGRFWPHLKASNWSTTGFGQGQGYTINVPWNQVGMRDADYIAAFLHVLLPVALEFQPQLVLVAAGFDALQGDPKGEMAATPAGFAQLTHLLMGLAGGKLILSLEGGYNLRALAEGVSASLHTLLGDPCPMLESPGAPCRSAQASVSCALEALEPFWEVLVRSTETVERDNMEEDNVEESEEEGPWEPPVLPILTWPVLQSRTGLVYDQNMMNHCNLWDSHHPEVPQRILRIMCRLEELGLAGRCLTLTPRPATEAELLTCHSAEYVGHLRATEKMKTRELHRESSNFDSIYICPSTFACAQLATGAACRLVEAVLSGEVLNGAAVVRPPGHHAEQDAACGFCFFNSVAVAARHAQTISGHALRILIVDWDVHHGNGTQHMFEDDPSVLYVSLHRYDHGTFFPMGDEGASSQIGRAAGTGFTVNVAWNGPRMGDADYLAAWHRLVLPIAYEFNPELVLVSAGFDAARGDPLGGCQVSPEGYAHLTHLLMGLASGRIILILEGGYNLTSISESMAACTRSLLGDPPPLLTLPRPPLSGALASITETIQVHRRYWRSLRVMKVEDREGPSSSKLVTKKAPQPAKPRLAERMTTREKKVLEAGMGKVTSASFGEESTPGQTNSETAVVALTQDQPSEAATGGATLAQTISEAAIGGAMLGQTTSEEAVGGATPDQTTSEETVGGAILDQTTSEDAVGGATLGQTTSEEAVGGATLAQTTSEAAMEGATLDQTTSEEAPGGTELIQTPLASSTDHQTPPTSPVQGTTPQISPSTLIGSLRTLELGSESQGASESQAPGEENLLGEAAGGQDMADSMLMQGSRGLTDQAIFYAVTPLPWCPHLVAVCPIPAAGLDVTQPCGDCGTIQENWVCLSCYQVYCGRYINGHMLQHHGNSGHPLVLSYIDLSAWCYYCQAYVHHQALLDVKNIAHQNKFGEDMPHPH
# Assay Summary: HDAC6 enzyme activity inhibition (HDAC Fluorimetric Drug Discovery Kit)
# Type: biochemical
# Test Context: human recombinant HDAC6, same protocol as HDAC1
List of pIC50 values.
// pIC50 is dimensionless: -log10 of concentration (M)

Here is how some molecules turned out for pIC50.
| Molecule | Obs Value |
| --- | --- |
| CCN1CCN(c2cccc(-c3cn(Cc4ccc(-c5nnc(C(F)F)o5)cc4F)nn3)n2)CC1 [Compound 17362] | 7.61 |
| OCc1ccc(-c2cn(Cc3ccc(-c4nnc(C(F)F)o4)cc3F)nn2)s1 [Compound 17922] | 7.01 |
| Fc1cc(-c2nnc(C(F)F)o2)ccc1Cn1cc(-c2cn3ccccc3n2)nn1 [Compound 17201] | 7.11 |
| FC(F)c1nnc(-c2ccc(Cn3cc(-c4ccnc5[nH]ccc45)nn3)cc2)o1 [Compound 4527] | 7.94 |
| Fc1cc(-c2nnc(C(F)F)o2)cnc1Cn1cc(-c2ccc(CN3CCC3)cc2)nn1 [Compound 18306] | 7.37 |
| CN(C)Cc1ccc(-c2cn(Cc3ncc(-c4nnc(C(F)F)o4)cc3F)nn2)s1 [Compound 18311] | 7.27 |
| Fc1cc(-c2nnc(C(F)F)o2)ccc1Cn1cc(-c2ccccn2)nn1 [Compound 18256] | 7.36 |
| Fc1cc(-c2nnc(C(F)F)o2)cnc1Cn1cc(-c2ccc(CN3CCCC3)s2)nn1 [Compound 18059] | 7.41 |

human recombinant HDAC6 (Homo sapiens, UniProt Q9UBN7) pIC50 of Fc1cc(-c2nnc(C(F)F)o2)cnc1Cn1cc(-c2ccc(CN3CCCC3)c(Cl)c2)nn1 [Compound 19096] is 7.03

FC(F)c1nnc(-c2ccc(Cn3cc(-c4ccc(CN5CC6(COC6)C5)cc4)nn3)cc2)o1 [Compound 4551] tested on human recombinant HDAC6 (Homo sapiens, UniProt Q9UBN7) gave pIC50: 7.98

Reported pIC50 (human recombinant HDAC6 (Homo sapiens, UniProt Q9UBN7)) for entry Fc1cc(-c2nnc(C(F)F)o2)ccc1Cn1cc(-c2ccc(CN3CCCC3)cc2)nn1 [Compound 4521] is 7.95

Entry Fc1cc(-c2nnc(C(F)F)o2)ccc1Cn1cc(-c2cncs2)nn1 [Compound 17851] : pIC50 on human recombinant HDAC6 (Homo sapiens, UniProt Q9UBN7) = 7.07

Query FC(F)c1nnc(-c2ccc(Cn3cc(-c4ccc(CN5CCCC5)cc4)nn3)cc2)o1 [Compound 4550] on human recombinant HDAC6 (Homo sapiens, UniProt Q9UBN7); pIC50 returned: 7.74

Form field, pIC50 with human recombinant HDAC6 (Homo sapiens, UniProt Q9UBN7), item OCc1ccc(-c2cn(Cc3ccc(-c4nnc(C(F)F)o4)cc3F)nn2)nc1 [Compound 17545] : 7.25
